test system: VP-MCC cell lines (WAGA, MKL-1, MKL-2); assay: qHTS cell viability, VP-MCC cell lines as a group (mean AUC, VP.MCC.avg); type: cell-based, human; settings: NPC library, Control AUC minus VP-MCC AUC (therapeutic window)
Structures can show the parent of a compound that is named as a salt.
As shown below, each of these compounds has a reported Control-VP-MCC value.
readout-name: Control-VP-MCC

compound="O=S1(=O)OC(c2ccc(O)cc2)(c2ccc(O)cc2)c2ccccc21 [Phenol red]" readout_name=Control-VP-MCC data_value=30.8871
compound="COc1ccc(CCN(C)CCCC(C#N)(c2cc(OC)c(OC)c(OC)c2)C(C)C)cc1OC (stereo not drawn) [Gallopamil hydrochloride]" readout_name=Control-VP-MCC data_value=35.3303
compound="Oc1ccc(C2CNCCc3c2cc(O)c(O)c3Cl)cc1 (stereo not drawn) [Fenoldopam]" readout_name=Control-VP-MCC data_value=43.713
compound="CSc1ccc2c(c1)N(CCC1CCCCN1C)c1ccccc1S2 (stereo not drawn) [Thioridazine]" readout_name=Control-VP-MCC data_value=64.1836
compound="O=C1CC2(CCCC2)CC(=O)N1CCCCN1CCN(c2ncccn2)CC1 [Buspirone]" readout_name=Control-VP-MCC data_value=50.6954
compound="Nc1ccc(C(=O)NCC(=O)O)cc1 [Aminohippuric acid]" readout_name=Control-VP-MCC data_value=53.2142

----------
Measured Control_Avg_AUC, listed per entry.
system: control cell lines (HACAT, HEK293T, CRL-7250, NIH-3T3); test: qHTS cell viability, control cell lines as a group (mean AUC, Control.avg); type: cell-based
Structures can show the parent of a compound that is named as a salt.
readout-name: Control_Avg_AUC

molecule="COc1ccc2c3c1O[C@H]1[C@@H](O)C=C[C@H]4[C@@H](C2)N(C)CC[C@@]341 [Codeine hydrochloride]" target_system="control cell lines (HACAT, HEK293T, CRL-7250, NIH-3T3)" readout_name=Control_Avg_AUC data_value=459.802
molecule="C[C@H](CN1CCOCC1)C(C(=O)N1CCCC1)(c1ccccc1)c1ccccc1.O=C(O)C(O)C(O)C(=O)O [Dextromoramide tartrate]" target_system="control cell lines (HACAT, HEK293T, CRL-7250, NIH-3T3)" readout_name=Control_Avg_AUC data_value=462.795
molecule="CCOc1cc(N2CCC(O)CC2)ccc1Nc1ncc2c(n1)N(C)c1ccccc1C(=O)N2C [XMD8-92]" target_system="control cell lines (HACAT, HEK293T, CRL-7250, NIH-3T3)" readout_name=Control_Avg_AUC data_value=459.068
molecule="C#CCN(C)[C@H](C)Cc1ccccc1 [Selegiline hydrochloride]" target_system="control cell lines (HACAT, HEK293T, CRL-7250, NIH-3T3)" readout_name=Control_Avg_AUC data_value=459.521
molecule="CC(O)C(=O)O.CCOc1ccc2nc3cc(N)ccc3c(N)c2c1.O [Ethacridine lactate hydrate]" target_system="control cell lines (HACAT, HEK293T, CRL-7250, NIH-3T3)" readout_name=Control_Avg_AUC data_value=438.043
molecule=CCC(=O)OC1(c2ccccc2)CCN(C)CC1.Cl target_system="control cell lines (HACAT, HEK293T, CRL-7250, NIH-3T3)" readout_name=Control_Avg_AUC data_value=471.656
molecule="CC[C@H]1C[C@@H]2C[C@H]3c4[nH]c5ccc(OC)cc5c4CCN(C2)[C@@H]13.Cl [Ibogaine hydrochloride]" target_system="control cell lines (HACAT, HEK293T, CRL-7250, NIH-3T3)" readout_name=Control_Avg_AUC data_value=479.316
molecule="Cc1ccc([N+](=O)[O-])[c]2c1[O][Hg]2 [Nitromersol]" target_system="control cell lines (HACAT, HEK293T, CRL-7250, NIH-3T3)" readout_name=Control_Avg_AUC data_value=345.629
molecule="CC(C)(C)CC(C)(C)c1ccc(OCCOCC[N+](C)(C)Cc2ccccc2)cc1 [Benzethonium chloride]" target_system="control cell lines (HACAT, HEK293T, CRL-7250, NIH-3T3)" readout_name=Control_Avg_AUC data_value=422.803
molecule="CC(Cc1ccccc1)NCCn1cnc2c1c(=O)n(C)c(=O)n2C (stereo not drawn) [Fenethylline hydrochloride]" target_system="control cell lines (HACAT, HEK293T, CRL-7250, NIH-3T3)" readout_name=Control_Avg_AUC data_value=486.733
molecule="CCCN(CCC)CCc1c[nH]c2ccccc12.Cl [N,N-Dipropyltryptamine hydrochloride]" target_system="control cell lines (HACAT, HEK293T, CRL-7250, NIH-3T3)" readout_name=Control_Avg_AUC data_value=479.166
molecule=COc1cc(CCN)c(OC)cc1Br.Cl target_system="control cell lines (HACAT, HEK293T, CRL-7250, NIH-3T3)" readout_name=Control_Avg_AUC data_value=454.231
molecule="CCC(=O)O[C@@H]1C=C2CCC3C(CCC4(C)C3CC[C@@H]4OC(=O)CC)C2CC1 (stereo partly drawn) [Bolandiol dipropionate]" target_system="control cell lines (HACAT, HEK293T, CRL-7250, NIH-3T3)" readout_name=Control_Avg_AUC data_value=471.728
molecule="N[C@@H](Cc1ccc(N(CCCl)CCCl)cc1)C(=O)O [Melphalan]" target_system="control cell lines (HACAT, HEK293T, CRL-7250, NIH-3T3)" readout_name=Control_Avg_AUC data_value=455.942
molecule="Cl.Oc1ccc2c3c1O[C@H]1[C@@H](O)C=C[C@H]4[C@@H](C2)NCC[C@@]341 [N-Normorphine hydrochloride]" target_system="control cell lines (HACAT, HEK293T, CRL-7250, NIH-3T3)" readout_name=Control_Avg_AUC data_value=483.566
molecule="CCCCCCCCCCCC[N+](C)(C)CCOc1ccccc1 [Domiphen bromide]" target_system="control cell lines (HACAT, HEK293T, CRL-7250, NIH-3T3)" readout_name=Control_Avg_AUC data_value=427.025
molecule="COc1cc(NC(C)CCCN)c2ncccc2c1 (stereo not drawn) [Primaquine diphosphate]" target_system="control cell lines (HACAT, HEK293T, CRL-7250, NIH-3T3)" readout_name=Control_Avg_AUC data_value=479.001
molecule="CN(C)C(=O)Nc1ccc(Cl)c(Cl)c1 [Diuron]" target_system="control cell lines (HACAT, HEK293T, CRL-7250, NIH-3T3)" readout_name=Control_Avg_AUC data_value=477.9
molecule=CC(=O)OC1(c2ccccc2)CCN(CCc2ccccc2)CC1 target_system="control cell lines (HACAT, HEK293T, CRL-7250, NIH-3T3)" readout_name=Control_Avg_AUC data_value=464.558
molecule="CNC(=O)[C@H](CC1=CN=C2C=CCC=C12)NC(=O)[C@@H](CC(=O)NO)CC(C)C [GM-6001]" target_system="control cell lines (HACAT, HEK293T, CRL-7250, NIH-3T3)" readout_name=Control_Avg_AUC data_value=469.151
molecule="C=CCC1([C@H](C)CCC)C(=O)NC(=O)NC1=O [S-(-)-Secobarbital]" target_system="control cell lines (HACAT, HEK293T, CRL-7250, NIH-3T3)" readout_name=Control_Avg_AUC data_value=485.883
molecule="CNC(C)Cc1ccc2c(c1)OCO2.Cl (stereo not drawn)" target_system="control cell lines (HACAT, HEK293T, CRL-7250, NIH-3T3)" readout_name=Control_Avg_AUC data_value=489.792
molecule="CCN(CC)CCc1c[nH]c2ccccc12.O=C(O)/C=C/C(=O)O [N,N-Diethyltryptamine fumarate]" target_system="control cell lines (HACAT, HEK293T, CRL-7250, NIH-3T3)" readout_name=Control_Avg_AUC data_value=472.357
molecule="CN(C)CCc1c[nH]c2ccc(O)cc12 [Bufotenine]" target_system="control cell lines (HACAT, HEK293T, CRL-7250, NIH-3T3)" readout_name=Control_Avg_AUC data_value=493.471
molecule=COc1cc(C[C@@H](C)N)c(OC)cc1C.Cl target_system="control cell lines (HACAT, HEK293T, CRL-7250, NIH-3T3)" readout_name=Control_Avg_AUC data_value=335.209
molecule="CC[N+](CC)(CC)CCOc1ccc(/C=C/c2ccccc2)cc1 [Stilonium iodide]" target_system="control cell lines (HACAT, HEK293T, CRL-7250, NIH-3T3)" readout_name=Control_Avg_AUC data_value=382.981
molecule="CC(C)(O)/C=C/C(=O)[C@](C)(O)[C@H]1[C@H](O)C[C@@]2(C)[C@@H]3CC=C4[C@@H](C=C(O)C(=O)C4(C)C)[C@]3(C)C(=O)C[C@]12C [Cucurbitacin I]" target_system="control cell lines (HACAT, HEK293T, CRL-7250, NIH-3T3)" readout_name=Control_Avg_AUC data_value=314.075
